Reference source for all entries: patent US20250388664A1

TARGET ENTITY: T1, truncated hTfR1 of SEQ ID NO:122 (human, UniProt P02786 122-760)
T1 construct: also called human TfR1; Human TfR1
T1 sequence (P02786 other isoform, or with tags, fused parts or gaps limits assumed): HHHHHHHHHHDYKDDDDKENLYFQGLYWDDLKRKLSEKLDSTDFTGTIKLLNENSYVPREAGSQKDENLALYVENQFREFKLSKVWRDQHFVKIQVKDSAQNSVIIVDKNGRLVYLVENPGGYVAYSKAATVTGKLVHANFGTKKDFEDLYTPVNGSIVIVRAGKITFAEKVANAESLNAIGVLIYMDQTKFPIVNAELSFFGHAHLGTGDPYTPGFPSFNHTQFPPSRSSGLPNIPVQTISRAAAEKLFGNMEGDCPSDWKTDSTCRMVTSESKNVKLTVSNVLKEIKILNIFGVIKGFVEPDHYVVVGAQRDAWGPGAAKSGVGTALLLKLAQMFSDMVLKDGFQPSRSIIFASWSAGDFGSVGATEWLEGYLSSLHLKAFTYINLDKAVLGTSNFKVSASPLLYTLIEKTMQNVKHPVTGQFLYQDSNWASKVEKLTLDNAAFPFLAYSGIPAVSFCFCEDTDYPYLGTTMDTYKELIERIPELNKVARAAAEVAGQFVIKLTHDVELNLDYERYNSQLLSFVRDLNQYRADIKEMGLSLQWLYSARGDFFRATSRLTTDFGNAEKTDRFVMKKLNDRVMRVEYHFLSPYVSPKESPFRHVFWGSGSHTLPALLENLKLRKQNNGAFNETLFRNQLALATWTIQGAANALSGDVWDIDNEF
TEST PROTOCOL: SPR, TfR1 amine-coupled, Fab injected, 1:1 fit
ASSAY READOUT: pKd
Value format note: pKd is -log10 of concentration (mol/L); just state the number.

stdin: Which value of pKd has been reported for h26D3 variant HC11 Fab (Fab, V domains shown, Single-mutant His-tagged Fab; also called Y107A) VH: EVQLVQSGAEVKKPGSSVKVSCKASGYIFTDYNMDWVRQAPGQGLEWIGDINPDYDTTSYNEKFKGRATLTVDKSTSTAYMELSSLRSEDTAVYYCARGGYSGSSYAHPMDYWGQGTLVTVSS VL: DIQMTQSPSSVSASVGDRVTITCKSSQSLLYSTNQKNYLAWYQQKPGKAPKLLIYWASTRESGVPSRFSGSGSGTDFTLTISSLQPEDFATYYCQQYFIYPRTFGQGTKVEIK in the records?
stdout: 6.41

stdin: Which value of pKd has been reported for h26D3 variant HC6 Fab (Fab, V domains shown, Single-mutant His-tagged Fab; also called Y55A) VH: EVQLVQSGAEVKKPGSSVKVSCKASGYIFTDYNMDWVRQAPGQGLEWIGDINPDADTTSYNEKFKGRATLTVDKSTSTAYMELSSLRSEDTAVYYCARGGYSGSSYYHPMDYWGQGTLVTVSS VL: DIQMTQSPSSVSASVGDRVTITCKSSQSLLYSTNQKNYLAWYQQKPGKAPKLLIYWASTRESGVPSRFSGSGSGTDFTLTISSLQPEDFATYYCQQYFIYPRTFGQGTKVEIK in the records?
stdout: 6.81
